- Protocol: Toxicity of compounds for uninfected MT-2 cells (MTT assay)
- Measurement setup: human
- Excerpt: In order to test whether some external death stimuli, which are independent of bcl-2 (Reed, 1994), may not selectively kill HIV-infected cells, we exposed uninfected and HIV-infected cells to various chemical toxins, including losoxantrone, bisnafide, etoposide and hydroxyurea. […] Therefore, we proceeded to examine whether either losoxantrone or etoposide were able to selectively kill HIV-infected cells. […]
Measurement name: viability at 24 h, 0.01 µM (%)
Just the number in %, nothing appended.

Value of measured viability at 24 h, 0.01 µM for the entry O=C1c2c(O)cccc2-c2nn(CCNCCO)c3ccc(NCCNCCO)c1c23 [losoxantrone] : 68
